In this section we review reported viability, T/C values for a set of molecules.
- System: PDC 521955-158-R6-J3 spheroids, viability
- Test: Anticancer human tumor 521955-158-R6-J3-PDC patient-derived pancreatic carcinoma cell line growth inhibition [TAK]
- Measurement setup: second compound 0.3 µM; first compound 0.00316 µM; stronger effect = lower value; spheroids with HUVEC and MSC
- Description: Combinatorial screen of targeted agents with TAK-243 and ipatasertib in multi-cell type tumor spheroids […] Compounds. […] If the clinical Cmax for an agent had not been determined, the highest concentration tested was 10 microM. NCI60 Cell Culture. […] The optimal seeding densities for each of the cell lines at each time point assessed were determined prior to performing the concentration response studies. […]
Please respond with the number in % and leave the unit unwritten.

Worked cases, answers included:
CC(C)n1nc(-c2ccc3oc(N)nc3c2)c2c(N)ncnc21 + CC(C)NCC(C(=O)N1CCN(c2ncnc3c2C(C)CC3O)CC1)c1ccc(Cl)cc1	87.1
CC(C)CC(NC(=O)C(Cc1ccccc1)NC(=O)c1cnccn1)B(O)O (stereo not given) + CC(C)NCC(C(=O)N1CCN(c2ncnc3c2C(C)CC3O)CC1)c1ccc(Cl)cc1	111

Entry CC(C)CC(NC(=O)CNC(=O)c1cc(Cl)ccc1Cl)B1OC(=O)CC(CC(=O)O)(C(=O)O)O1 (stereo not given) + CC(C)NCC(C(=O)N1CCN(c2ncnc3c2C(C)CC3O)CC1)c1ccc(Cl)cc1 under PDC 521955-158-R6-J3 spheroids, viability had viability, T/C of 106

Entry COC1CC2CCC(C)C(O)(O2)C(=O)C(=O)N2CCCCC2C(=O)OC(C(C)CC2CCC(OCCO)C(OC)C2)CC(=O)C(C)C=C(C)C(O)C(OC)C(=O)C(C)CC(C)C=CC=CC=C1C (stereo not given) + CC(C)NCC(C(=O)N1CCN(c2ncnc3c2C(C)CC3O)CC1)c1ccc(Cl)cc1 under PDC 521955-158-R6-J3 spheroids, viability had viability, T/C of 97

Entry COc1c(OCCCN2CCOCC2)ccc2c3n(c(=NC(=O)c4cnc(N)nc4)nc12)CCN3 + CC(C)NCC(C(=O)N1CCN(c2ncnc3c2C(C)CC3O)CC1)c1ccc(Cl)cc1 under PDC 521955-158-R6-J3 spheroids, viability had viability, T/C of 70.9

###

- System: PDC 521955-158-R6-J3 spheroids, viability
- Test: Anticancer human tumor 521955-158-R6-J3-PDC cell line growth inhibition [TAK];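 also: spheroids exposed to drugs for 7 days before readout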
- Measurement setup: curve of first compound; second compound 0.949 µM; spheroids with HUVEC and MSC
In this section we review reported IC50 values for a set of compounds.
Please respond with the number in nM and leave the unit unwritten.

Cn1cnc2c(F)c(Nc3ccc(Br)cc3Cl)c(C(=O)NOCCO)cc21 + CC(C)NCC(C(=O)N1CCN(c2ncnc3c2C(C)CC3O)CC1)c1ccc(Cl)cc1	176
CC(C)CC(NC(=O)CNC(=O)c1cc(Cl)ccc1Cl)B1OC(=O)CC(CC(=O)O)(C(=O)O)O1 (stereo not given) + CC(C)NCC(C(=O)N1CCN(c2ncnc3c2C(C)CC3O)CC1)c1ccc(Cl)cc1	54.3
Cc1nc(NC(=O)N2CCCC2C(N)=O)sc1-c1ccnc(C(C)(C)C(F)(F)F)c1 (stereo not given) + CC(C)NCC(C(=O)N1CCN(c2ncnc3c2C(C)CC3O)CC1)c1ccc(Cl)cc1	4490

We now examine a further compound.
// COc1c(OCCCN2CCOCC2)ccc2c3n(c(=NC(=O)c4cnc(N)nc4)nc12)CCN3 + CC(C)NCC(C(=O)N1CCN(c2ncnc3c2C(C)CC3O)CC1)c1ccc(Cl)cc1 : IC50 value = 7.43

###

In this section we review reported viability, T/C values for a set of compounds.
- System: PDC 521955-158-R6-J3 spheroids, viability
- Test: Anticancer human tumor 521955-158-R6-J3-PDC cell line growth inhibition [TAK];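 also: spheroids exposed to drugs for 7 days before readout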;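 as to viability, T/C: 100% = DMSO vehicle control viability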
- Measurement setup: second compound 0.3 µM; first compound 0.000316 µM; stronger effect = lower value; spheroids with HUVEC and MSC

Worked cases, answers included:
CC(C)CC(NC(=O)CNC(=O)c1cc(Cl)ccc1Cl)B1OC(=O)CC(CC(=O)O)(C(=O)O)O1 (centres undefined) + CC(C)NCC(C(=O)N1CCN(c2ncnc3c2C(C)CC3O)CC1)c1ccc(Cl)cc1	86.8%
CC(C)n1nc(-c2ccc3oc(N)nc3c2)c2c(N)ncnc21 + CC(C)NCC(C(=O)N1CCN(c2ncnc3c2C(C)CC3O)CC1)c1ccc(Cl)cc1	83.2%
CC(C)CC(NC(=O)C(Cc1ccccc1)NC(=O)c1cnccn1)B(O)O (centres undefined) + CC(C)NCC(C(=O)N1CCN(c2ncnc3c2C(C)CC3O)CC1)c1ccc(Cl)cc1	94.5%

We now examine a further compound.
// COC1CC2CCC(C)C(O)(O2)C(=O)C(=O)N2CCCCC2C(=O)OC(C(C)CC2CCC(OCCO)C(OC)C2)CC(=O)C(C)C=C(C)C(O)C(OC)C(=O)C(C)CC(C)C=CC=CC=C1C (centres undefined) + CC(C)NCC(C(=O)N1CCN(c2ncnc3c2C(C)CC3O)CC1)c1ccc(Cl)cc1 : viability, T/C value = 98.5%

###

In this section we review reported viability, T/C values for a set of compounds.
- Test system: PDC 521955-158-R6-J3 spheroids, viability
- Test: Anticancer human tumor 521955-158-R6-J3-PDC cell line growth inhibition [TAK];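 also: spheroids exposed to drugs for 7 days before readout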;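 as to viability, T/C: 100% = DMSO vehicle control viability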
- Measurement setup: second compound 3 µM; first compound 0.000316 µM; stronger effect = lower value; spheroids with HUVEC and MSC

// COC1CC2CCC(C)C(O)(O2)C(=O)C(=O)N2CCCCC2C(=O)OC(C(C)CC2CCC(OCCO)C(OC)C2)CC(=O)C(C)C=C(C)C(O)C(OC)C(=O)C(C)CC(C)C=CC=CC=C1C (centres undefined) + CC(C)NCC(C(=O)N1CCN(c2ncnc3c2C(C)CC3O)CC1)c1ccc(Cl)cc1 : viability, T/C value = 96.5%

// CC(C)CC(NC(=O)C(Cc1ccccc1)NC(=O)c1cnccn1)B(O)O (centres undefined) + CC(C)NCC(C(=O)N1CCN(c2ncnc3c2C(C)CC3O)CC1)c1ccc(Cl)cc1 : viability, T/C value = 93%

// CC(C)CC(NC(=O)CNC(=O)c1cc(Cl)ccc1Cl)B1OC(=O)CC(CC(=O)O)(C(=O)O)O1 (centres undefined) + CC(C)NCC(C(=O)N1CCN(c2ncnc3c2C(C)CC3O)CC1)c1ccc(Cl)cc1 : viability, T/C value = 86.3%

// CC(C)n1nc(-c2ccc3oc(N)nc3c2)c2c(N)ncnc21 + CC(C)NCC(C(=O)N1CCN(c2ncnc3c2C(C)CC3O)CC1)c1ccc(Cl)cc1 : viability, T/C value = 75.6%

###

- Test system: PDC 521955-158-R6-J3 spheroids, viability
- Test: Anticancer human tumor 521955-158-R6-J3-PDC cell line growth inhibition [TAK];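 also: spheroids exposed to drugs for 7 days before readout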;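 as to viability, T/C: 100% = DMSO vehicle control viability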
- Measurement setup: second compound 3 µM; first compound 0.0316 µM; stronger effect = lower value; spheroids with HUVEC and MSC
Readout name: viability, T/C (%)
Please respond with the number in % and leave the unit unwritten.

CC(C)n1nc(-c2ccc3oc(N)nc3c2)c2c(N)ncnc21 + CC(C)NCC(C(=O)N1CCN(c2ncnc3c2C(C)CC3O)CC1)c1ccc(Cl)cc1	44.6

// CC(C)CC(NC(=O)CNC(=O)c1cc(Cl)ccc1Cl)B1OC(=O)CC(CC(=O)O)(C(=O)O)O1 (stereo unspecified) + CC(C)NCC(C(=O)N1CCN(c2ncnc3c2C(C)CC3O)CC1)c1ccc(Cl)cc1 : viability, T/C value = 78.7

// CC(C)(C)c1nc(-c2cccc(NS(=O)(=O)c3c(F)cccc3F)c2F)c(-c2ccnc(N)n2)s1 + CC(C)NCC(C(=O)N1CCN(c2ncnc3c2C(C)CC3O)CC1)c1ccc(Cl)cc1 : viability, T/C value = 91.9

// COc1c(OCCCN2CCOCC2)ccc2c3n(c(=NC(=O)c4cnc(N)nc4)nc12)CCN3 + CC(C)NCC(C(=O)N1CCN(c2ncnc3c2C(C)CC3O)CC1)c1ccc(Cl)cc1 : viability, T/C value = 37.8

// Cc1nc(NC(=O)N2CCCC2C(N)=O)sc1-c1ccnc(C(C)(C)C(F)(F)F)c1 (stereo unspecified) + CC(C)NCC(C(=O)N1CCN(c2ncnc3c2C(C)CC3O)CC1)c1ccc(Cl)cc1 : viability, T/C value = 57.2

// COC1CC2CCC(C)C(O)(O2)C(=O)C(=O)N2CCCCC2C(=O)OC(C(C)CC2CCC(OCCO)C(OC)C2)CC(=O)C(C)C=C(C)C(O)C(OC)C(=O)C(C)CC(C)C=CC=CC=C1C (stereo unspecified) + CC(C)NCC(C(=O)N1CCN(c2ncnc3c2C(C)CC3O)CC1)c1ccc(Cl)cc1 : viability, T/C value = 73.7

###

- Tested on: PDC 521955-158-R6-J3 spheroids, viability
- Test: Anticancer human tumor 521955-158-R6-J3-PDC cell line growth inhibition [TAK];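 also: spheroids exposed to drugs for 7 days before readout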;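 as to viability, T/C: 100% = DMSO vehicle control viability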
- Measurement setup: second compound 30 µM; first compound 0.01 µM; stronger effect = lower value; spheroids with HUVEC and MSC
Mark 1 (yes) only when viability, T/C stays strictly below 50%. Values equal to the cut-off are 0 (no).

Past entries and their recorded results:
COC1CC2CCC(C)C(O)(O2)C(=O)C(=O)N2CCCCC2C(=O)OC(C(C)CC2CCC(OCCO)C(OC)C2)CC(=O)C(C)C=C(C)C(O)C(OC)C(=O)C(C)CC(C)C=CC=CC=C1C (stereo not given) + CC(C)NCC(C(=O)N1CCN(c2ncnc3c2C(C)CC3O)CC1)c1ccc(Cl)cc1	0 (no)
CC(C)n1nc(-c2ccc3oc(N)nc3c2)c2c(N)ncnc21 + CC(C)NCC(C(=O)N1CCN(c2ncnc3c2C(C)CC3O)CC1)c1ccc(Cl)cc1	1 (yes)
CC(C)CC(NC(=O)CNC(=O)c1cc(Cl)ccc1Cl)B1OC(=O)CC(CC(=O)O)(C(=O)O)O1 (stereo not given) + CC(C)NCC(C(=O)N1CCN(c2ncnc3c2C(C)CC3O)CC1)c1ccc(Cl)cc1	0 (no)
CC(C)CC(NC(=O)C(Cc1ccccc1)NC(=O)c1cnccn1)B(O)O (stereo not given) + CC(C)NCC(C(=O)N1CCN(c2ncnc3c2C(C)CC3O)CC1)c1ccc(Cl)cc1	1 (yes)

Query compound follows.
Q: Consider COc1c(OCCCN2CCOCC2)ccc2c3n(c(=NC(=O)c4cnc(N)nc4)nc12)CCN3 + CC(C)NCC(C(=O)N1CCN(c2ncnc3c2C(C)CC3O)CC1)c1ccc(Cl)cc1 . Does its viability, T/C lie strictly below 50%?
Ans: 1 (yes)
